Let's look at some compounds and their measured PROTEASE % INHIB..
# TARGET_ENTITY: UniProt P04585
# EXPERIMENT_DESCRIPTION: biochemical
# APPLIED_CONDITIONS: Table I; Dose 3.300 μM
# unit: % | format: bare number

CCCC1(CCC)CC(O)=C(C(CC)c2cccc(NS(=O)(=O)c3cccc4cccnc34)c2)C(=O)O1 (single isomer, unassigned) :: 89.11
CC[C@@H](Cc1ccccc1)c1cc(O)c(C(c2cccc(NS(=O)(=O)c3cn(C)cn3)c2)C2CC2)c(=O)o1 (single isomer, unassigned) :: 112.51
CC[C@H](Cc1ccccc1)c1cc(O)c(C(c2cccc(NS(=O)(=O)c3ccccn3)c2)C2CC2)c(=O)o1 (single isomer, unassigned) :: 105.15
CC[C@H](Cc1ccccc1)c1cc(O)c(C(c2cccc(NS(=O)(=O)c3ccc(C#N)cc3)c2)C2CC2)c(=O)o1 (single isomer, unassigned) :: 92.86
CC[C@H](Cc1ccccc1)c1cc(O)c(C(c2cccc(NS(=O)(=O)c3nccn3C)c2)C2CC2)c(=O)o1 (single isomer, unassigned) :: 100.01
CCCC1(CCC)CC(O)=C(C(CC)c2cccc(NS(=O)(=O)c3cn(C)cn3)c2)C(=O)O1 (single isomer, unassigned) :: 86.98

// query Provide only the value of recorded PROTEASE % INHIB. for CCCC1(CCC)CC(O)=C(C(c2cccc(NS(=O)(=O)c3cn(C)cn3)c2)C2CC2)C(=O)O1 (single isomer, unassigned)
// result 97.8

---

// reported PROTEASE % INHIB. per item
# TARGET_ENTITY: HIV-1 protease (Human immunodeficiency virus type 1 group M subtype B)
# EXPERIMENT_DESCRIPTION: biochemical
# APPLIED_CONDITIONS: Table II; enzyme HIV-1; DOSE 0.370 (unit not given)
Numeric only. Scale: %

CC(C)CC1(CC(C)C)CC(O)=C(C(c2cccc(NS(=O)(=O)c3ccc(C#N)cn3)c2)C(C)(C)C)C(=O)O1 (racemic) :: 82.71
CCCC1(CCc2ccccc2)CC(O)=C(C(c2cccc(NS(=O)(=O)c3cn(C)cn3)c2)C(C)(C)C)C(=O)O1 (single isomer, unassigned) :: 99.85
CCC[C@@]1(CCc2ccc(F)cc2)CC(O)=C([C@@H](c2cccc(NS(=O)(=O)c3ccc(C#N)cn3)c2)C(C)(C)C)C(=O)O1 (single isomer, unassigned) :: 94.37
Cn1cnc(S(=O)(=O)Nc2cccc(C(C3=C(O)CC(CCc4ccccc4)(CCC(F)(F)F)OC3=O)C(C)(C)C)c2)c1 (single isomer, unassigned) [Example 273] :: 23.24
CC(C)(C)C(C1=C(O)C2CCCCCCC2OC1=O)c1cccc(NS(=O)(=O)c2ccc(C#N)cn2)c1 (stereo not drawn) :: 90.35

Turning to the following compound.
// query Give the reported value of PROTEASE % INHIB. for this record: CCC(C1=C(O)C2CCCCCC2OC1=O)c1cccc(NS(=O)(=O)c2ccc(C#N)cn2)c1 (stereo not drawn)
// result 86.68

---

# reported PROTEASE % INHIB.; entries follow
# TARGET_ENTITY: HIV-1 protease (Human immunodeficiency virus type 1 group M subtype B)
# EXPERIMENT_DESCRIPTION: biochemical
# APPLIED_CONDITIONS: Table II; enzyme HIV-1; DOSE 3.300 (unit not given)
Give a bare numeral; the unit % is implied.

CCC[C@@]1(CCc2ccccc2)CC(O)=C([C@H](CC)c2cccc(NS(=O)(=O)c3ccc(N)cn3)c2)C(=O)O1 (single isomer, unassigned) [Example 314] :: 100.76
N#Cc1ccc(S(=O)(=O)Nc2cccc(CC3=C(O)CC(CCc4ccccc4)(CCc4ccccc4)OC3=O)c2)nc1 [Example 353] :: 63.96
CC(C)CC1(CC(C)C)CC(O)=C(C(c2cccc(NS(=O)(=O)c3ccc(C#N)cn3)c2)C(C)(C)C)C(=O)O1 (racemic) [Example 306] :: 97.29
CC(C)(C)C(C1=C(O)CC(CCc2ccccc2)(CCc2ccccc2)OC1=O)c1cccc(NS(=O)(=O)c2ccc(N)cn2)c1 (single isomer, unassigned) [Example 356] :: 92.28

// query Look up PROTEASE % INHIB. of CCC(C1=C(O)CC(CCc2ccccc2)(CCc2ccccc2)OC1=O)c1cccc(NS(=O)(=O)c2ccc(C#N)cn2)c1 (stereo not drawn) [Example 331] and report it.
// result 99.3

---

Each entry below lists one item and its recorded inhibition at 3.3 µM value.
# TARGET_ENTITY: HIV-1 protease (Human immunodeficiency virus type 1 group M subtype B, UniProt P04585)
# EXPERIMENT_DESCRIPTION: biochemical
# APPLIED_CONDITIONS: Table I; Dose 3.300 μM; read-out: Protease % Inhib
# Description: The HIV protease screening assay is based on fluorescently labeled substrate which can be resolved from nonlabeled cleavage product using special beads coated with streptavidin. […] The labeled cleavage product is separated from the unreacted substrate via filtration and is read on the Idexx screen machine. The data are analyzed by appropriate computer algorithms to ascertain percent inhibition values.
Respond with the bare value in %.

Consider the worked cases shown below.
CCCC1(CCC)CC(O)=C(C(c2cccc(NS(=O)(=O)c3cn(C)cn3)c2)C2CC2)C(=O)O1 (single isomer, unassigned) [Example 56] :: 105
CCCC1(CCC)CC(O)=C(C(c2cccc(NS(=O)(=O)c3cn(C)cn3)c2)C2CC2)C(=O)O1 (stereo not drawn) [Example 48] :: 89.3

Now look at this entry.
// query Supply inhibition at 3.3 µM value. Item: CCCC1(CCC)CC(O)=C(C(CC)c2cccc(NS(=O)(=O)c3cn(C)cn3)c2)C(=O)O1 (single isomer, unassigned) [Example 53]
// result 99.6

---

# TARGET_ENTITY: HIV-1 protease (Human immunodeficiency virus type 1 group M subtype B, UniProt P04585)
# EXPERIMENT_DESCRIPTION: biochemical
# APPLIED_CONDITIONS: Table I; read-out: HIV Protease FITC Assay Ki
We begin with a simple list: items and their reported Ki.
Number in nM, nothing else.

Below, each entry is followed by its recorded Ki result.
CN(c1cccc(C(c2c(O)c3c(oc2=O)CCCCCC3)C2CC2)c1)S(=O)(=O)c1cn(C)cn1 (stereo not shown) :: 3.7
CCC(CC1CCOCC1)c1cc(O)c(C(c2cccc(NS(=O)(=O)c3nccn3C)c2)C2CC2)c(=O)o1 (stereo not shown) :: 0.49
CCCC1(CCc2ccccc2)CC(O)=C(C(c2cccc(NS(=O)(=O)c3cn(C)cn3)c2)C2CC2)C(=O)O1 (stereo not shown) :: 0.71

// query Using the record for CN(c1cccc(C(c2c(O)c3c(oc2=O)CCCCCC3)C2CC2)c1)S(=O)(=O)c1ccc(F)cc1 (stereo not shown) , state its measured Ki.
// result 35

---

# TARGET_ENTITY: UniProt P04585
# EXPERIMENT_DESCRIPTION: biochemical
# APPLIED_CONDITIONS: Table I; Dose 30.000 μM; read-out: Protease % Inhib
MEASUREMENT_LABEL: inhibition at 30 µM
Express the reported value numerically, then name its unit.

Previously resolved entries follow.
COCCOCCCc1cc(O)c(C(c2cccc(NS(=O)(=O)c3cn(C)cn3)c2)C2CC2)c(=O)o1 (centres unmarked) :: 109%
CC[C@H](Cc1ccccc1)c1cc(O)c(C(c2cccc(NS(=O)(=O)c3nccn3C)c2)C2CC2)c(=O)o1 (single isomer, unassigned) :: 103%
O=c1oc(C(CC2CC2)CC2CC2)cc(O)c1C(c1cccc(NS(=O)(=O)c2nc3ccccc3[nH]2)c1)C1CC1 (centres unmarked) :: 97.3%

// query Tell me inhibition at 30 µM reported for CCCC1(CCC)CC(O)=C(C(c2cccc(NS(=O)(=O)c3ccc(C#N)cc3)c2)C2CC2)C(=O)O1 (centres unmarked)
// result 84.8%

// query Determine its reported inhibition at 30 µM: CCC(CCNS(=O)(=O)c1cn(C)cn1)c1cc(O)c(C(c2cccc(NS(=O)(=O)c3cn(C)cn3)c2)C2CC2)c(=O)o1 (centres unmarked)
// result 103%

// query Write down inhibition at 30 µM measured for item Cn1ccnc1S(=O)(=O)Cc1cccc(C(c2c(O)c3c(oc2=O)CCCCCC3)C2CC2)c1 (centres unmarked)
// result 99.2%

// query Quickly give me recorded inhibition at 30 µM for N#Cc1ccc(S(=O)(=O)Nc2cccc(C(c3c(O)cc(C(CC4CC4)CC4CC4)oc3=O)C3CC3)c2)cc1 (centres unmarked)
// result 113%

// query Supply recorded inhibition at 30 µM for CCC(CC1CCCOC1)c1cc(O)c(C(c2cccc(NS(=O)(=O)c3cn(C)cn3)c2)C2CC2)c(=O)o1 (centres unmarked) [Example 145B] here.
// result 84.5%

---

# TARGET_ENTITY: UniProt:P04585
# EXPERIMENT_DESCRIPTION: biochemical
# APPLIED_CONDITIONS: Table I; Dose 0.370 μM
Overview of recorded PROTEASE % INHIB. for various compounds
The figure you give is taken to be in %; do not add the unit.

# example entries with known answers
CCCC1(CCC)CC(O)=C(C(CC)c2cccc(NS(=O)(=O)c3cn(C)cn3)c2)C(=O)O1 (single isomer, unassigned) [Example 55] :: 18.77
CC[C@H](Cc1ccccc1)c1cc(O)c(C(c2cccc(NS(=O)(=O)c3ccccn3)c2)C2CC2)c(=O)o1 (single isomer, unassigned) [Example 142] :: 92.52
CCCC1(CCC)CC(O)=C(C(CC)c2cccc(NS(=O)(=O)c3cccc4cccnc34)c2)C(=O)O1 (single isomer, unassigned) [Example 54] :: 72.41

// query Look up and report measured PROTEASE % INHIB. for this entry: CCCC1(CCC)CC(O)=C(C(CC)c2cccc(NS(=O)(=O)c3cn(C)cn3)c2)C(=O)O1 (single isomer, unassigned) [Example 53]
// result 97.74

// query Retrieve PROTEASE % INHIB. measured for CC[C@H](Cc1ccccc1)c1cc(O)c(C(c2cccc(NS(=O)(=O)c3nccn3C)c2)C2CC2)c(=O)o1 (single isomer, unassigned) [Example 144] and print it.
// result 87.39

// query Give the reported PROTEASE % INHIB. for this compound. CC[C@H](Cc1ccccc1)c1cc(O)c(C(c2cccc(NS(=O)(=O)c3ccc(C#N)cc3)c2)C2CC2)c(=O)o1 (single isomer, unassigned) [Example 149]
// result 87.52

// query Write down PROTEASE % INHIB. measured for item CC[C@@H](Cc1ccccc1)c1cc(O)c(C(c2cccc(NS(=O)(=O)c3cn(C)cn3)c2)C2CC2)c(=O)o1 (single isomer, unassigned) [Example 140]
// result 96.01

// query Specify PROTEASE % INHIB. for CCCC1(CCC)CC(O)=C(C(c2cccc(NS(=O)(=O)c3cn(C)cn3)c2)C2CC2)C(=O)O1 (single isomer, unassigned) [Example 57] and stop.
// result 105.17

Cited source for all entries: patent US6169181A
